Catalogue of protein stability index readings, one per entry.
- assay procedure: protein stability index of a GFP-peptide fusion (GPS, HEK-293T) (PSI 1-6); higher = more stable;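 further: 24-mer peptide tiles fused after GFP, lentivirally expressed, FACS-sorted into six equal bins by GFP/DsRed ratio, decoded by Illumina sequencing, PSI is the read-weighted mean bin number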
- run conditions: treatment: DMSO; c terminus: a fixed tail appended
Answer with a bare number; do not write a unit.

Use these answered entries as a reference point.
# seq text, protein stability index
data = [
    ("EGELGEYRQKLLMFLEISSYYDPG [VPS39]", 2.19),
    ("EDGPGKEEAPELDEAELDYLMDVL [SERTAD1]", 5.08),
    ("FRSGALDLDSCSRDGALLGCSLTA [MYORG]", 2.58),
]

Any idea what its protein stability index is? The sequence is IDNTTVIYNSNIFTDPFFIVETLC [KCNA1]
2.72

Form field: reported protein stability index of LSLFIPESPRWLYSQGRLSEAEEA [SLC22A15]
3.19

###

- assay procedure: protein stability index of a GFP-peptide fusion (GPS, HEK-293T) (PSI 1-6); higher = more stable
- run conditions: treatment: MLN4924 1 uM, 8 h; c terminus: a fixed tail appended
Entries and their protein stability index values follow.
Keep it simple and answer with nothing but the number.

Take a look at these entries with their results.
# seq text, numeric readout
measured = [
    ("AAPPPPATPIVPVVPPTPPVVKKK [BRD3]", 5.25),
    ("EFLLDLGHHERSIMTDLYYLSQTD [FUT8]", 2.47),
    ("RHEVIMDRHGVYGLQRNLLVENII [TRIM63]", 2.31),
]

Consider the sequence YFAIKQEVVTPDNMCMGRTSRGKL [ETS1] and give its measured protein stability index.
3.49

// protein stability index lookup, key: LHSLPGVSLSLENRELWKEFSSVG [TBX6]
2.83

Which protein stability index value belongs to SVIEEDLEEFQLALKHYVESASSQ [NECAB1] ?
3.84

Query: protein stability index; subject: NAKTEQGPTGVTMTSNPITWGQIK [CDK11A]
4.12

###

- assay procedure: protein stability index of a GFP-peptide fusion (GPS, HEK-293T) (PSI 1-6); higher = more stable
- run conditions: treatment: MLN4924 1 uM, 8 h; c terminus: a fixed tail appended
// values below are reported protein stability index
Lab note: jot down the number only; don't add units.

# seq text, protein stability index
measured = [
    ("EFAEMVEREEEDDALDSEGRDSEG [KCNG1]", 5.62),
    ("NQMDKARRHPQGAWKELDRNYLNY [CHGB]", 2.84),
    ("AGDGDTSNFETYPENDWDTAAPVP [PRKX]", 5.14),
    ("EEEKLKAEEIRIKGKYNISSEDYR [KCNK9]", 5.29),
    ("ILKNLSQVAMRCRCSSMHFLVAEW [SAT1]", 2.65),
    ("GSVLRIQPLRTPRDEAIYECVASN [PTPRD]", 3.17),
    ("EPVLTQTSEQAPSSAPRDVQARML [PTPRD]", 5.31),
    ("QLFTEYGRLAMDEIFQKPFQTLMF [ATL3]", 2.35),
]

Recorded protein stability index for KGSPDVSASSDEPYARIQQSRRQC [SMIM2] , please?
5.02

Find the recorded protein stability index belonging to TIPASLDLSPLLGFWQLPPPATQN [PLAGL1] and report it.
2.96

// query protein stability index value for entry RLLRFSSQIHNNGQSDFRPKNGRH [LOXL2]
3.42

Quick one: protein stability index for ISLALFVLPKPKVISCLEQGEEPW [ZNF75A] ?
2.9

Would you mind telling me what protein stability index value was observed for HRHTSHLGHAVLPSNARGPILSRS [SPRY1] ?
3.94

What value of measured protein stability index is listed for SSMFSGSWKESSMNIIELEIPDQN [GMCL1] ?
3.67

Recorded protein stability index of RVYFLKGGYETFYSEYPECCVDVK [DUSP5] , please.
2.46

Look up protein stability index: HYGNIMYDRRVIRGNTYALQTGPL [RSPH3]
2.13

Consider the sequence EEPQTVPEARSRDATPPVSPINME [JUNB] and give its measured protein stability index.
5.46

Give the measured protein stability index of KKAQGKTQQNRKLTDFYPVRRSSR [KMT5A] .
3.86

Which protein stability index is reported for this sequence? EANADLEVKIRDWHLKQSPASPER [KRT13]
4.97

Please report the recorded protein stability index for RKLRELQLRNCLRILMGELSNHHD [BEX3] .
2.28
